Reported EC50 by item:
# System: Human alphaherpesvirus 3
# experimental-protocol: Antiviral activity against thymidine kinase deficient VZV YS/R infected HEL cells assessed as reduction in virus plaque formation after 5 days
# Format: functional, organism-based
# conditions-used: Human alphaherpesvirus 3, YS/R, 120 h
Respond numerically; units are µM and should not be typed.

Worked examples follow.
COC(=O)[C@H](C)NP(=O)(OCCOCn1cnc2c(=O)[nH]c(N)nc21)Oc1ccccc1 (some centres undefined)
16
Nc1nc2c(ncn2COCCOP(=O)(N[C@@H](Cc2ccccc2)C(=O)OCc2ccccc2)Oc2ccccc2)c(=O)[nH]1 (some centres undefined)
10
C[C@H](NP(=O)(OCCOCn1cnc2c(=O)[nH]c(N)nc21)Oc1ccccc1)C(=O)OCc1ccccc1 (some centres undefined)
0.59

# context switch: different molecule, same EC50
Which EC50 is reported with Human alphaherpesvirus 3 for this entry: COC(=O)[C@H](C)NP(=O)(OCCOCn1cnc2c(=O)[nH]c(N)nc21)Oc1cccc2ccccc12 (some centres undefined) ? 6.1
